Listed here: items and their measured IC50.
tested on: P. falciparum (NF54) stage V gametocytes; experiment: Stage V gametocyte viability assay (MitoTracker Red CMXRos high content imaging); assay type: cell-based, Plasmodium falciparum; settings: Plasmodium falciparum, NF54, 72 h, read-out: Stg V Gam dose response IC50 (µM) (n=3), 10-point dose response, n=3, 72 h

| COMPOUND | ASSAY SYSTEM | BOUND OPERATOR | IC50 (µM) |
| --- | --- | --- | --- |
| Cc1ccc2nc(CN(C)Cc3n[nH]c4c3CCCCC4)[nH]c2c1C [DDD01247714] | P. falciparum (NF54) stage V gametocytes | = | 1.62 |
| Cc1ccccc1CN1CCCC1c1cccc(Nc2nccs2)n1 (centres unmarked) [DDD01057017] | P. falciparum (NF54) stage V gametocytes | = | 0.261 |
| CCSCCNc1nc(-c2ccccn2)nc2c1c(C)nn2C [DDD01253625] | P. falciparum (NF54) stage V gametocytes | = | 1.89 |
| Fc1cccc(C(NCc2ncc[nH]2)c2ccccn2)c1 (centres unmarked) [DDD01064153, FC1=CC=CC(=C1)C(NCC1=NC=CN1)C1=CC=CC=N1] | P. falciparum (NF54) stage V gametocytes | = | 1.55 |
| CSc1ccc(-c2nc(CN3CCC(CN)C3)c(C)o2)cc1 (centres unmarked) [DDD01250168] | P. falciparum (NF54) stage V gametocytes | = | 2.42 |
| Cc1nn(C)c2nc(-c3ccccn3)nc(NCCCOC(C)C)c12 [DDD01254389] | P. falciparum (NF54) stage V gametocytes | = | 1.71 |
| CO[C@H]1CCN(Cc2cccc(C)n2)[C@@H]2CN(Cc3cccnc3)C[C@H]12 [DDD01036932] | P. falciparum (NF54) stage V gametocytes | = | 0.276 |
| Cc1cccc(CN2CCCn3c(nnc3Cn3cccn3)C2)n1 [DDD01084631] | P. falciparum (NF54) stage V gametocytes | = | 1.04 |
| Cc1nc(Nc2ncccn2)cc(C2CCCN2CC(C)C)n1 (centres unmarked) [DDD01061131] | P. falciparum (NF54) stage V gametocytes | = | 6.69 |
| Cc1cnc(Nc2cccc(C3CCCN3Cc3cn(C)nc3C)n2)s1 (centres unmarked) [DDD01056825] | P. falciparum (NF54) stage V gametocytes | = | 0.095 |
| Fc1ccc2[nH]c(C3CCCN3Cc3c[nH]cn3)nc2c1 (centres unmarked) [DDD01245473, FC1=CC=C2N=C(NC2=C1)C1CCCN1CC1=CN=CN1] | P. falciparum (NF54) stage V gametocytes | = | 1.88 |
| CCN(CCN(C)C)c1nc(CCN)nc2sc(C)c(C)c12 [DDD01251823, CCN(CCN(C)C)C1=C2C(C)=C(C)SC2=NC(CCN)=N1] | P. falciparum (NF54) stage V gametocytes | = | 4.42 |
| O=C(C1CC2(CCNCC2)CN1)N1CCN(c2cccc(Cl)c2Cl)CC1 (centres unmarked) [DDD01243908] | P. falciparum (NF54) stage V gametocytes | = | 4.94 |
| CNc1cc(C)nc(NCc2cc(C)cc3c(C)c(C)[nH]c23)n1 [DDD01248198] | P. falciparum (NF54) stage V gametocytes | = | 0.791 |
| COc1ccc(C)cc1CN1CCC(c2cc3ncccc3cn2)CC1 [DDD01058767] | P. falciparum (NF54) stage V gametocytes | = | 2.51 |
| Cc1nnc(NCc2ccccc2Cl)c(C#N)c1C [DDD01302395, CC1=NN=C(NCC2=CC=CC=C2Cl)C(C#N)=C1C] | P. falciparum (NF54) stage V gametocytes | > | 9.58 |
| Cc1cccc(CN2Cc3[nH]nc(COCCO)c3C2)n1 [DDD01030906, CC1=CC=CC(CN2CC3=C(C2)C(COCCO)=NN3)=N1] | P. falciparum (NF54) stage V gametocytes | = | 1.47 |
| COc1c(C)cnc(CN(C)C2CCCCC2)c1C [DDD01078822, COC1=C(C)C=NC(CN(C)C2CCCCC2)=C1C] | P. falciparum (NF54) stage V gametocytes | = | 1.45 |
| COc1cccc(CN2CCCC2c2cncc(Nc3nncs3)n2)c1 (centres unmarked) [DDD01058609] | P. falciparum (NF54) stage V gametocytes | = | 0.534 |
| COc1ccc(-c2c(C)nn3c(=N)c(C#N)n[nH]c23)cc1OC [DDD01035187] | P. falciparum (NF54) stage V gametocytes | = | 8.2 |
| CCc1ccc(C2c3nc[nH]c3CCN2Cc2nccn2CC)nc1 (centres unmarked) [DDD01254473] | P. falciparum (NF54) stage V gametocytes | = | 0.056 |
| Cc1ccc(-c2nc(CNC(C)CCO)[nH]c2-c2ccccn2)cc1 (centres unmarked) [DDD01253542] | P. falciparum (NF54) stage V gametocytes | = | 1.09 |
| Cc1cc(CN(C)c2nc(-c3ccccn3)nc3c2CCNCC3)n[nH]1 [DDD01255965] | P. falciparum (NF54) stage V gametocytes | = | 0.875 |
| CC(C)C[C@H](N)C(=O)N1CC2(CCNCC2)c2cc(Cl)ccc21 [DDD01029528] | P. falciparum (NF54) stage V gametocytes | = | 3.02 |
| CC(C)Nc1nc2c(c(NC3CC3)n1)CCN(C1CCOCC1)CC2 [DDD01029612] | P. falciparum (NF54) stage V gametocytes | = | 4.48 |
| COc1ccc(NC(=O)Cn2nc(C)c(C(C)=O)c2C)cc1 [DDD01027600] | P. falciparum (NF54) stage V gametocytes | = | 3.74 |
| COCCCNC1N=C(n2nc(C)cc2C)Nc2sc3c(c21)CCCC3 (centres unmarked) [DDD01037467] | P. falciparum (NF54) stage V gametocytes | = | 0.344 |
| CN(CCc1cccc2ccccc12)Cc1nc(N)nc(N(C)C)n1 [DDD01076782] | P. falciparum (NF54) stage V gametocytes | = | 3.99 |
| CC(C)(C)c1cn2c(n1)C(CNCc1ccccn1)CCC2 (centres unmarked) [DDD01062588, CC(C)(C)C1=CN2CCCC(CNCC3=CC=CC=N3)C2=N1] | P. falciparum (NF54) stage V gametocytes | = | 0.069 |
| Cc1cnn(CC2CCCN2Cc2nc(C)c3ccccc3n2)c1 (centres unmarked) [DDD01298810] | P. falciparum (NF54) stage V gametocytes | = | 0.296 |
| CCc1ccc2nc(NCCCN(CCO)CCO)cc(C)c2c1 [DDD01247914, CCC1=CC=C2N=C(NCCCN(CCO)CCO)C=C(C)C2=C1] | P. falciparum (NF54) stage V gametocytes | = | 3.72 |
| CC1(c2ccccc2)CCCN(Cc2cncn2C2CCCC2)C1 (centres unmarked) [DDD01246491] | P. falciparum (NF54) stage V gametocytes | = | 2.65 |
| CN(CCO)Cc1cc(Cl)ccc1OCC(O)CN1CCCCCC1 (centres unmarked) [DDD01243745, CN(CCO)CC1=CC(Cl)=CC=C1OCC(O)CN1CCCCCC1] | P. falciparum (NF54) stage V gametocytes | = | 5.69 |
| O=C(CN1CCc2sccc2C1)Nc1ccnc2ccnn12 [DDD01078865] | P. falciparum (NF54) stage V gametocytes | = | 0.116 |
| Cc1cccc(CN2CCCC2c2cncc(Nc3nncs3)n2)c1 (centres unmarked) [DDD01058843] | P. falciparum (NF54) stage V gametocytes | = | 0.319 |

The measured values listed here are drawn from paper PMC7155171.
